- test_method_notes: Inhibition of NS5A Q30K mutant in Hepatitis C virus subtype 1a replicon assessed as reduction in viral replication using Ac-Asp-Glu-Asp (EDANS)-Glu-Glu-Abu-(COO) Ala-Ser-Lys (DABCYL)-NH2 as substrate measured after 72 hrs by FRET assay

| item_smiles | EC50 |
| --- | --- |
| COC(=O)N[C@H](C(=O)N1CCC[C@H]1c1ncc(-c2ccc(-c3ccc(-c4cnc([C@@H]5CCCN5C(=O)[C@@H](NC(=O)OC)C(C)C)[nH]4)cc3)cc2)[nH]1)C(C)C | 1.23 µM |

###

- test_method_notes: Inhibition of NS5A in Hepatitis C virus subtype 1b replicon assessed as reduction in viral replication using Ac-Asp-Glu-Asp (EDANS)-Glu-Glu-Abu-(COO) Ala-Ser-Lys (DABCYL)-NH2 as substrate measured after 72 hrs by FRET assay

| molecule | uom | EC50 |
| --- | --- | --- |
| COC(=O)N[C@H](C(=O)N1CCC[C@H]1c1ncc(-c2ccc(-c3ccc(-c4cnc([C@@H]5CCCN5C(=O)[C@@H](NC(=O)OC)C(C)C)[nH]4)cc3)cc2)[nH]1)C(C)C [DACLATASVIR] | pM | 9 |
